Molecular target: rat liver hydroxymethylglutaryl-CoA reductase (Rattus norvegicus)
Sequence (P51639 1-887): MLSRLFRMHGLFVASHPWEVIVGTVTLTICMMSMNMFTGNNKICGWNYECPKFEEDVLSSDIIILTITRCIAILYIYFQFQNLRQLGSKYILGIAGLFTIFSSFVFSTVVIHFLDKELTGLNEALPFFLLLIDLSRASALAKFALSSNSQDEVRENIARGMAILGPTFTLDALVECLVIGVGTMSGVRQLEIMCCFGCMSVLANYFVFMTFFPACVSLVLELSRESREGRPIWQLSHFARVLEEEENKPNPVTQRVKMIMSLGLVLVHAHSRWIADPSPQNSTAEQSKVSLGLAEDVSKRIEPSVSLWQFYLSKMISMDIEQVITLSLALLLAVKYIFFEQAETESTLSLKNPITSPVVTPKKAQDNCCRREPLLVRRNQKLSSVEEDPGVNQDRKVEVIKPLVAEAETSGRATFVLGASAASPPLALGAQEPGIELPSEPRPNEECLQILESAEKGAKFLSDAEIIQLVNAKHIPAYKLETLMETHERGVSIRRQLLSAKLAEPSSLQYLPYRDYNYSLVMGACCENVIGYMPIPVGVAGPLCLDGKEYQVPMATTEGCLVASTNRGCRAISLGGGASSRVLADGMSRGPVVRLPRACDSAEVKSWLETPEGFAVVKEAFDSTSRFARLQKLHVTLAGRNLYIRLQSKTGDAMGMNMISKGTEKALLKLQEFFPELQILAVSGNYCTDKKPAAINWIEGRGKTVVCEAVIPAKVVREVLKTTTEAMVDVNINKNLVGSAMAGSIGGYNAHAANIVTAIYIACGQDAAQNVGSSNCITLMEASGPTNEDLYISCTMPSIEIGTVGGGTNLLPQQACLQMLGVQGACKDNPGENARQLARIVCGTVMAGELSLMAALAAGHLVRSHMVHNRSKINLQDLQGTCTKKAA
Counter-ions that a name gives are not always drawn.
Readout Name: pIC50
Value format note: pIC50 is -log10 of concentration (mol/L); just state the number.

[[record]]
compound = "CC(C)c1nc(-c2ccc(F)cc2)c(-c2ccnc(Nc3ccccc3)n2)n1CC[C@@H](O)C[C@@H](O)CC(=O)O [Example 25, sodium salt]"
readout_name = "pIC50"
meas_value = 7.01


Incoming: # lookup: pIC50 of CC(C)(C)c1nc(-c2ccc(F)cc2)c(-c2ccncc2)n1/C=C/[C@@H](O)C[C@@H](O)CC(=O)O (racemic) [Example 33, sodium salt]
Outgoing: 7.96

Incoming: Then this compound: CC(C)c1nc(-c2ccc(F)cc2)c(-c2ccnc(Nc3ccccc3)n2)n1/C=C/[C@@H](O)C[C@@H](O)CC(=O)O (racemic) [Example 28, sodium salt]
Outgoing: 8.32

* * *

Molecular target: recombinant human p38α MAPK (Homo sapiens)
Sequence (Q16539 whole entry): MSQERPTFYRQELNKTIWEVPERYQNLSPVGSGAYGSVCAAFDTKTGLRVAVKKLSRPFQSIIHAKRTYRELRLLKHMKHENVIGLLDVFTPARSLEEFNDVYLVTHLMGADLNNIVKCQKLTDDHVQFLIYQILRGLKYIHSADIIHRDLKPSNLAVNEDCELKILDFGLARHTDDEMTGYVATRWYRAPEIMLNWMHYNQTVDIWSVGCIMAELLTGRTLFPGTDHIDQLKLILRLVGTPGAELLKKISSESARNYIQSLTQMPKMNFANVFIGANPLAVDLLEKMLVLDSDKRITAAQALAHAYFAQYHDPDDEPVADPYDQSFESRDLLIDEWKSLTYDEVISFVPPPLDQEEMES
Experiment: Human p38α MAP kinase inhibition assay (cell-free)
Conditions: MBP substrate, 100 μM ATP
Counter-ions that a name gives are not always drawn.
Readout Name: log10 IC50 (log10 of the value in µM)
Values are log10 of IC50 in µM.

[[record]]
molecule = "CC(C)c1nc(-c2ccc(F)cc2)c(-c2ccnc(Nc3ccccc3)n2)n1/C=C/[C@@H](O)C[C@@H](O)CC(=O)O (racemic) [Example 28, sodium salt]"
readout_name = "log10 IC50"
meas_value = -0.57


Incoming: # lookup: log10 IC50 of CC(C)c1nc(-c2ccc(F)cc2)c(-c2ccnc(Nc3ccccc3)n2)n1CC[C@@H]1C[C@@H](O)CC(=O)O1 [Example 24]
Outgoing: -0.96

Incoming: Then this molecule: CC(C)(C)c1nc(-c2ccc(F)cc2)c(-c2ccncc2)n1/C=C/[C@@H]1C[C@@H](O)CC(=O)O1 (racemic) [Example 34]
Outgoing: 0.26

Incoming: Then this molecule: CC(C)(C)c1nc(-c2ccc(F)cc2)c(-c2ccncc2)n1/C=C/[C@@H](O)C[C@@H](O)CC(=O)O (racemic) [Example 33, sodium salt]
Outgoing: 0.78

Incoming: Then this molecule: O=C1C[C@H](O)C[C@@H](CCn2c(-c3ccccc3)nc(-c3ccc(F)cc3)c2-c2ccncn2)O1 [Example 40]
Outgoing: 0.15

Incoming: Then this molecule: O=C(O)C[C@H](O)C[C@H](O)CCn1c(-c2ccccc2)nc(-c2ccc(F)cc2)c1-c1ccncn1 [Example 39, calcium salt]
Outgoing: 1.15
